- procedure details: ATG_TCF_b_cat_CIS: Attagene CIS-FACTORIAL HepG2 Assay for human T-Cell-Factor with beta-catenin (TCF/b-cat) (AID 2282965)
- settings: HepG2 TCF/beta-catenin cis-reporter transcription, actives raise or lower the signal
Active and inactive are the calls of the source. The calls were made as follows: active = hit-call score of the fitted dose curve at least 0.9, where 1 is the maximum; inactive = score below 0.9.
Outcome (select one): TRUE (active), FALSE (inactive)

Worked set:
I would be grateful if you could indicate the recorded call for CCCCC(CC)C(=O)OCCOCCOCCOCCOC(=O)C(CC)CCCC (stereo not drawn) .
FALSE

I would be grateful if you could indicate the recorded call for OCC(CO)(CBr)CBr .
FALSE

I would be grateful if you could indicate the recorded call for O=C(c1cc(O)c(O)c(O)c1)c1ccc(O)c(O)c1O .
FALSE

I would be grateful if you could indicate the recorded call for CCOC(OCC)C(=O)c1ccccc1 .
FALSE

Next:
I would be grateful if you could indicate the recorded call for O=S(=O)(c1ccc(OCc2ccccc2)cc1)c1ccccc1O .
TRUE

I would be grateful if you could indicate the recorded call for CCC(=O)O .
FALSE

I would be grateful if you could indicate the recorded call for O=C(O)c1cccc(C(=O)O)n1 .
FALSE

I would be grateful if you could indicate the recorded call for CCOC(C)=O .
FALSE
